Reference source for all entries: patent US20120207760A1

Target: recombinant homotrimeric HA, A/California/4/09 H1N1 (Influenza A virus A/California/4/09 (H1N1))
Experiment: trimeric HA microarray, transfection set 4
Conditions: remark: other sources report otherwise
measured-endpoint: Trimeric HA Binding RLU (RLU)
Kindly answer with a numeric value in RLU, unit omitted.

[in] So what's the measured Trimeric HA Binding RLU for this one? TCN-523 (5248_A17) (antibody, V domains shown) VH: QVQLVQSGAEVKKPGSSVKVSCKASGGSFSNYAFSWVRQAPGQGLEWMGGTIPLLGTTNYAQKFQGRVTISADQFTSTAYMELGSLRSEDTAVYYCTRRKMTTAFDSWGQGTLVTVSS VL: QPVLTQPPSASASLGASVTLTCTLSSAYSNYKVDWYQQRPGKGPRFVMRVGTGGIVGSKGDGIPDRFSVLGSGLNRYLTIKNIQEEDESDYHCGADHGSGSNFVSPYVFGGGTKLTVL
[out] 28800

[in] So what's the measured Trimeric HA Binding RLU for this one? TCN-535 (5246_P19) (antibody, V domains shown) VH: QVQLVQSGSEVKKPGTSVKVSCTASGSVFTNYGISWVRQAPGQGLEWMGGIIPLFGAAKYAQKFQGRVTITADESTKTVYMELSRLTSKDTAIYFCAKAPRVYEYYFDQWGQGTPVTVSS VL: EIVLTQSPGTLSLSPGERATLSCRASQSVSSSQLAWYQQKPGQAPRLIIYGASTRATGIPDRFSGSGSGTDFTLTIGRLEPEDFAVFFCQQYSTSPPTFGQGTKVDFK
[out] 25200
